- subject of test: T1, human c-Met, membrane-bound on cells (human, UniProt P08581 25-1390)
- T1 construct: whole, on cells; A431 cells carry on average 30,000 copies of c-Met per cell (Qifi); also called c-Met expressed on A431 cells; c-Met on A549 cells
- experimental protocol: flow cytometry on A431 cells (PE goat anti-human IgG); second panel
For each entry below, report its pEC50 value.
API: returns pEC50 as number; meaning -log10 of concentration in mol/L.

Per the records, this binder ( Uni-1016-022-TE (other, also called UniBody molecule of antibody 022) VH: QVQLVESGGGVVQPGRSLRLSCAASGFTFSSYAMHWVRQAPGKGLEWVAVISYDGSNKYYADSVKGRFTISRDNSKNTLYLQMNSLRAEDTAVYYCARELLWFGELWGYFDLWGRGTLVTVSS VL: DIQMTQSPSSVSASVGDRVTITCRASQGISSWLAWYQHKPGKAPKLLIYAASSLQSGVPSRFSGSGSGTDFTLTISSLQPEDFATYYCQEASSFTWTFGQGTKVEIK ) has pEC50 equal to 8.78

Per the records, this binder ( IgG1-1016-022 (antibody, V domains shown, also called TH1016-022; PC1016-022) VH: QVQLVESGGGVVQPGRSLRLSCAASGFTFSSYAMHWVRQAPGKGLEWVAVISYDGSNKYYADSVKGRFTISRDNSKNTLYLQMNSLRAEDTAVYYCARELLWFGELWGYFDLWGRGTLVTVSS VL: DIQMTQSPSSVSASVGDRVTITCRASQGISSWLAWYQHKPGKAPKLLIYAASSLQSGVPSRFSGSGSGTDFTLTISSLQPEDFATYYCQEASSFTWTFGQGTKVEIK ) has pEC50 equal to 8.96

Per the records, this binder ( anti-c-Met HuMab 005 (IgG1) (antibody, V domains shown, also called TH1016-005; PC1016-005) VH: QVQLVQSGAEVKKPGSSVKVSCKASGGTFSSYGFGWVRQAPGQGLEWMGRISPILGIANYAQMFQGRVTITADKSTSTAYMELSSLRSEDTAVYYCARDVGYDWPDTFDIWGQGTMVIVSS VL: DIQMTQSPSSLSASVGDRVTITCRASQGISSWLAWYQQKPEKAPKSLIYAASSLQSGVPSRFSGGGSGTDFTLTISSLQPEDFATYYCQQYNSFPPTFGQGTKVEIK ) has pEC50 equal to 8.81
